# studyTarget: Steroid 17-alpha-hydroxylase/17,20 lyase (Homo sapiens)
# Sequence (P05093 whole entry): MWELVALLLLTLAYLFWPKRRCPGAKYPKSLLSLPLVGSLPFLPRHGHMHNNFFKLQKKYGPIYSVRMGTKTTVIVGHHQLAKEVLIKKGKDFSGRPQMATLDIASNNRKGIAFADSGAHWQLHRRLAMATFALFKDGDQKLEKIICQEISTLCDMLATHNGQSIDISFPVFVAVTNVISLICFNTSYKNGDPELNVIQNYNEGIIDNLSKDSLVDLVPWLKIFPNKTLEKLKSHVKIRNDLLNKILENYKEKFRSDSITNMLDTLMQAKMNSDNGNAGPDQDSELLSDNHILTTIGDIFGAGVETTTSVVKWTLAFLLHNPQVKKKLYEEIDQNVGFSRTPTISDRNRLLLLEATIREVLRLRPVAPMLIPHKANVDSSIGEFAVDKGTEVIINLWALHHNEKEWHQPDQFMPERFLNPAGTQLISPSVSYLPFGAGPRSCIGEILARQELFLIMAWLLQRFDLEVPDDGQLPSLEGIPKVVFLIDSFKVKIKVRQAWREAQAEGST
# method: Inhibition of human CYP17 expressed in Escherichia coli at 2.5 uM
# details: 2.5 µM
measurementType: Inhibition

Here's what some known entries look like.
### Prompt Given the molecule O=C(c1ccccc1)c1ccc(Cn2ccnc2)cc1 , what is its reported Inhibition?
### Response Not Active

### Prompt Also need N#Cc1ccc(C2CCCc3cncn32)cc1 (configuration not stated) , thanks.
### Response Not Active

### Prompt Also need O=C(c1ccccc1)c1cc([N+](=O)[O-])ccc1Cn1ccnc1 , thanks.
### Response Not Active

### Prompt Also need O=C(c1ccccc1)c1cc(Cn2ccnc2)ccc1[N+](=O)[O-] , thanks.
### Response Not Active

### Prompt Also need O=C(c1ccccc1)c1ccccc1Cn1ccnc1 , thanks.
### Response Not Active

### Prompt Also need O=C(c1ccc(-c2ccccc2)cc1)c1cccc(Cn2ccnc2)c1 , thanks.
### Response Not Active

Now take the following molecule into account.
### Prompt Given the molecule O=C(c1ccccc1)c1cccc(Cn2ccnc2)c1 , what is its reported Inhibition?
### Response Not Active

Where do the numbers come from? From ChEMBL document CHEMBL1145461.
